experimentSummary: self-splicing fitness, log relative to wild type (ln ratio); higher = more splicing; Tetrahymena group I intron in knt gene, E. coli kanamycin selection, DiMSum; sequences stand for … in CUCUCU…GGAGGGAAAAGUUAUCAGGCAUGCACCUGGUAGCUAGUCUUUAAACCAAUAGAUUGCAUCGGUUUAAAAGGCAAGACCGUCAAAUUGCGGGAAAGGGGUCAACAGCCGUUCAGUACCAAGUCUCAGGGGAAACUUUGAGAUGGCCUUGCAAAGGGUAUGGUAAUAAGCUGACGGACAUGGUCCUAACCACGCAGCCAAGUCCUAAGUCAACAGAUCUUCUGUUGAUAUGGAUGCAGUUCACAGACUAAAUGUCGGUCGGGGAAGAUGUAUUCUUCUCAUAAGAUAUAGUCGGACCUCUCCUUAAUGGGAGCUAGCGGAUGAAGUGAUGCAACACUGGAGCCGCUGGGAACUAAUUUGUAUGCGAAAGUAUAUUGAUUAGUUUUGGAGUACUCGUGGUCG;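 also: selection with 25 µg/mL kanamycin versus none on LB agar overnight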
setupConditions: 30 °C
Readings of self-splicing fitness (ln) for the listed sequences
observedProperty: self-splicing fitness (ln)

                     seq  resultvalue
 0  CGAGAGCAAUAUUACGUGAU        -4.24
 1  GUGUAGCAAUAUUACGUAUG        -3.21
 2  UUUUAGCAAUAUUACGUGGC        -3.09
 3  AAAAAGCAAUAUUACGGCCU       -0.199
 4  CUACAGCAAUAUUACGGUCG       -0.256
 5  UCCAAGCAAUAUUACGCGCU        -2.67
 6  CGUAAGCAAUAUUACGACCU        -1.97
 7  UAACAGCAAUAUUACGUAAG        -1.46
 8  CACAAGCAAUAUUACGAAAG       -0.721
 9  GUCUAGCAAUAUUACGGUCG        -1.06
10  GCUUAGCAAUAUUACGUGUU       -0.915
11  ACAGAGCAAUAUUACGGCAG        -2.25
12  AGCCAGCAAUAUUACGGAUG        -1.85
13  AAUAAGCAAUAUUACGAAAA        -2.98
14  UGAAAGCAAUAUUACGGACG       -0.186
15  UCUCAGCAAUAUUACGCGGA        -2.54
16  AUACAGCAAUAUUACGUAUG        -2.42
17  AUGUAGCAAUAUUACGCUGU        -2.92
18  UAGAAGCAAUAUUACGCACA       -0.416
19  AGGAAGCAAUAUUACGUCUA       -0.335
20  CAAUAGCAAUAUUACGGCUU        -2.53
21  UUGGAGCAAUAUUACGGCCG        -1.89
22  GCCCAGCAAUAUUACGGGUA        -1.34
23  CAGAAGCAAUAUUACGGGAG         -1.6
24  UUCUAGCAAUAUUACGGGUU        -2.34
25  UCCAAGCAAUAUUACGACCA        -1.63
26  UCCCAGCAAUAUUACGUUUA        -2.21
27  UGGAAGCAAUAUUACGUGAG       -0.593
28  ACAUAGCAAUAUUACGGUAU         -3.6
29  GUGAAGCAAUAUUACGUAGC        -3.31
30  UAUGAGCAAUAUUACGUGUU        -3.34
31  UGCUAGCAAUAUUACGACUG        0.165
32  GAGCAGCAAUAUUACGCAAC        -2.85
33  CGCCAGCAAUAUUACGUCGG        -3.04

----------
experimentSummary: self-splicing fitness, log relative to wild type (ln ratio); higher = more splicing; Tetrahymena group I intron in knt gene, E. coli kanamycin selection, DiMSum; sequences stand for … in CUCUCU…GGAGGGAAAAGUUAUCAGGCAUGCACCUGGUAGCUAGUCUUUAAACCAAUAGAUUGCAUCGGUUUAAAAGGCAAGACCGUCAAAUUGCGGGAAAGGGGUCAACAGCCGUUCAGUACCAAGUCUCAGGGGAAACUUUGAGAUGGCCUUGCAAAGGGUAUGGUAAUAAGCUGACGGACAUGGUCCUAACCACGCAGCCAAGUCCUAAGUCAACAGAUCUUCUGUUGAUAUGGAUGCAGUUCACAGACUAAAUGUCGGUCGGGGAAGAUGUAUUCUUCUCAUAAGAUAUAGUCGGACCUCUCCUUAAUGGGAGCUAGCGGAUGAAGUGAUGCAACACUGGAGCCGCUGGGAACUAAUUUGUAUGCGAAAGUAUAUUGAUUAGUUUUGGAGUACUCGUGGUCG
setupConditions: 37 °C
Kind request: treat -2 as inclusive, so self-splicing fitness (ln) at -2 or higher is True, anything lower is False.

>>> print(df.to_string())
                    seq  labelclass
0  AUAGAGCAAUAUUACGACGG        True
1  GUUCAGCAAUAUUACGAGGA       False
2  CAUGAGCAAUAUUACGGUGA       False
3  AAUUAGCAAUAUUACGUAUC        True
4  GCACAGCAAUAUUACGAAAU        True
5  GGCUAGCAAUAUUACGGACG        True
6  CCUUAGCAAUAUUACGGAGA       False
7  CGACAGCAAUAUUACGACGA        True

----------
experimentSummary: self-splicing fitness, log relative to wild type (ln ratio); higher = more splicing; Tetrahymena group I intron in knt gene, E. coli kanamycin selection, DiMSum; sequences stand for … in CUCUCU…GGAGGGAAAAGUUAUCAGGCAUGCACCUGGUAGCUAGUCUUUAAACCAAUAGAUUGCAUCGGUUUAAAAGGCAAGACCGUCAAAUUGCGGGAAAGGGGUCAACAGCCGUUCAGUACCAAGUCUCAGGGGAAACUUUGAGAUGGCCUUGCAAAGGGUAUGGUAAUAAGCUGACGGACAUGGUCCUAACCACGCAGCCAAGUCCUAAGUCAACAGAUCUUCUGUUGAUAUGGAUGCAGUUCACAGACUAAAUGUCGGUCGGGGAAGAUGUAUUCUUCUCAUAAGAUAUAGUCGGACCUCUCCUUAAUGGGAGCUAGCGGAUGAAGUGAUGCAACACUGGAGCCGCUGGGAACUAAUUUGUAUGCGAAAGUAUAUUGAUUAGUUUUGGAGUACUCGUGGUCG
setupConditions: 37 °C
Kind request: treat -2 as inclusive, so self-splicing fitness (ln) at -2 or higher is TRUE, anything lower is FALSE.

                     seq  labelclass
 0  CAGCAGCAAUAUUACGCAGA        TRUE
 1  GCGCAGCAAUAUUACGCUAG       FALSE
 2  ACGAAGCAAUAUUACGCAUA        TRUE
 3  GAUCAGCAAUAUUACGUACA        TRUE
 4  UGCCAGCAAUAUUACGGGUC       FALSE
 5  AUAGAGCAAUAUUACGACCA        TRUE
 6  AGGGAGCAAUAUUACGCCAG       FALSE
 7  GGUUAGCAAUAUUACGACUG        TRUE
 8  GUCGAGCAAUAUUACGAAUA       FALSE
 9  GCUCAGCAAUAUUACGUGAG       FALSE
10  GGAUAGCAAUAUUACGUCAA        TRUE
11  CUAUAGCAAUAUUACGAAAA       FALSE
12  ACACAGCAAUAUUACGCGGC       FALSE
13  UCAUAGCAAUAUUACGUCGC       FALSE
14  CCGUAGCAAUAUUACGUCCG        TRUE
15  UUGUAGCAAUAUUACGCCUA        TRUE

----------
experimentSummary: self-splicing fitness, log relative to wild type (ln ratio); higher = more splicing; Tetrahymena group I intron in knt gene, E. coli kanamycin selection, DiMSum; sequences stand for … in CUCUCU…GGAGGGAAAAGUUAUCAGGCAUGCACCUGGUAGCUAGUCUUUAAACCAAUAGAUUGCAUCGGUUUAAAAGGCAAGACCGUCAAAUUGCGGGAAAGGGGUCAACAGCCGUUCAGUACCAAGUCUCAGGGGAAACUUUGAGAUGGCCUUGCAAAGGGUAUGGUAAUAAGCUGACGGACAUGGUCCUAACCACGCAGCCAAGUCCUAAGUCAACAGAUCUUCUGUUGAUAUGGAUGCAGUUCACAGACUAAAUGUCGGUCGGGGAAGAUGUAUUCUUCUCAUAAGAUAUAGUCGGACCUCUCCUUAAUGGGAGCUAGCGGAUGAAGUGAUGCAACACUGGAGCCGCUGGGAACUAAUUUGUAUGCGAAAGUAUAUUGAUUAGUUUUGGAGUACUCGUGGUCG
setupConditions: 37 °C
Readings of self-splicing fitness (ln) for the listed sequences
observedProperty: self-splicing fitness (ln)

>>> df
                    seq  resultvalue
0  AAUAAGCAAUAUUACGUCGU       -0.613
1  GCUGAGCAAUAUUACGUCAG        -2.15
2  AGUCAGCAAUAUUACGCCAU         -1.1
3  UCGGAGCAAUAUUACGUGUG        -1.63
4  GAGAAGCAAUAUUACGCGUA         -1.1
5  AUGUAGCAAUAUUACGUGGU        -1.53
6  GACUAGCAAUAUUACGGCGA       -0.303
7  AUUAAGCAAUAUUACGGUAC         -1.6
